From: paper PMC10786891

Assay system: T1, EsCas13d, nuclease-dead (Eubacterium siraeum, UniProt B0MS50, R295A;H300A;R849A;H854A)
T1 sequence: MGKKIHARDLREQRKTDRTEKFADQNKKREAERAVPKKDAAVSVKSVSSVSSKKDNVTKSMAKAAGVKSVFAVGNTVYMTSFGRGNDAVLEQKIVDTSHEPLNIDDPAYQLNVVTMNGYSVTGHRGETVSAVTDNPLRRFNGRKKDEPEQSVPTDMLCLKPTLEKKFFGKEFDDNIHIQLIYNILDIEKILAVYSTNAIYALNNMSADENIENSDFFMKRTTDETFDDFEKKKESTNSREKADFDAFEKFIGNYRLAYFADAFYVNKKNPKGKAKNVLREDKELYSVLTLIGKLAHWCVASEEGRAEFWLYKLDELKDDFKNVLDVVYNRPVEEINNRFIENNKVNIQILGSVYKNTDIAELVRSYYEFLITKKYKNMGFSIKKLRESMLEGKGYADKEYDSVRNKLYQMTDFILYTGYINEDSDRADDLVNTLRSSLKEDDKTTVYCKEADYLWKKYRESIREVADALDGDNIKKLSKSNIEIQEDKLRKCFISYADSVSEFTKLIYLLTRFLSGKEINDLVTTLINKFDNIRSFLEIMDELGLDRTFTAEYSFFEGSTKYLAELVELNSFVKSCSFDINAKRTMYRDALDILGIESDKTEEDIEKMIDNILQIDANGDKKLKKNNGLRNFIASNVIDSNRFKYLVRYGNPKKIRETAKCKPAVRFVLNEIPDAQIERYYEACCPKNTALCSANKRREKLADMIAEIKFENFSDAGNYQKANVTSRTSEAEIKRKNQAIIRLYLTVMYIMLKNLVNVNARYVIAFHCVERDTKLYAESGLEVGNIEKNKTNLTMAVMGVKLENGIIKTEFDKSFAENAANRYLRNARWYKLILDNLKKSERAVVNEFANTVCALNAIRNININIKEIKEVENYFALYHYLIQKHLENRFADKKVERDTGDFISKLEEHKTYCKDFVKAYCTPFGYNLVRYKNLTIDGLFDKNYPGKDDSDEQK
Method notes: crRNA (strand 1, pre-loaded); Mg2+; 40 mM Tris-HCl pH 7.5, 150 mM NaCl, 6 mM MgCl2, 1 mM DTT, 0.1% Tween-20, 0.2 mg/ml BSA; 25 C; 10 min per concentration, then washed
Condition details: tags: His6-TwinStrep-SUMO cleaved; N-terminal SNAP kept (SNAP-Surface 488); label: 3' end held by stalled T7 RNA polymerase
Assay readout: Kd (nM)
Give bare numbers, in nM.

Worked cases, Kd given:
1. target 1 MT 5'PFS CAG 3'PFS ACC (mixed) RNA 1: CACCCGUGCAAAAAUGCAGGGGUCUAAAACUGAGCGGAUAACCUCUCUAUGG RNA 2: GGGAAUGGAUCCACAUCUACGAAUUCCAGCCAUAGAGAGGUUAUCCGCUCAACCAGAUCGGAAGAGCACACGU: 24
2. target 1 A9C,C21U (mixed) RNA 1: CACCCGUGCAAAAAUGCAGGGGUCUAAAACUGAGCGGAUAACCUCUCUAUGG RNA 2: GGGAAUGGAUCCACAUCUACGAAUUCGUACUAUAGAGAGGUUCUCCGCUCACCGAGAUCGGAAGAGCACACGU: 9.9
3. target 1 insA 3' of 21 (mixed) RNA 1: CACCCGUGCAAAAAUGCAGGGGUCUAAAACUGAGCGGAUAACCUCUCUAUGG RNA 2: GGGAAUGGAUCCACAUCUACGAAUUCGUACCAAUAGAGAGGUUAUCCGCUCACCGAGAUCGGAAGAGCACACGU: 13.8

Moving on to another binder below.
Reported Kd of target 3 C1G,U22C (mixed) RNA 1: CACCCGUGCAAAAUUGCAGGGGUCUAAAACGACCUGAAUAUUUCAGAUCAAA RNA 2: GGGAAUGGAUCCACAUCUACGAAUUCGUUCUUGAUCUGAAAUAUUCAGGUGUGCAGAUCGGAAGAGCACACGU : 41
